Reference source for all entries: the PolyMetriX glass transition set

Readout type: glass transition temperature (°C)
Lab book: enter the figure in °C, no units written.

// below: answered compounds
Compound	glass transition temperature [°C]
*CC(C)(C)COC(=O)C1CCC(C(=O)O*)CC1 (repeat unit)	30.00
*CC(*)C(=O)Oc1cccc(C)c1 (repeat unit)	24.50
*C(=O)OCCCCCCCCOC(=O)c1ccc(N2C(=O)c3ccc(*)cc3C2=O)cc1 (repeat unit)	65.00
*CC(*)c1ccc(Cl)cc1Cl (repeat unit)	133

Kindly review the next compound as well.
// field: glass transition temperature; key: *Oc1ccc(CC(NC(=O)Cc2ccc(OC(=O)COCCOCC(*)=O)cc2)C(=O)OCC)cc1 (repeat unit) ; value = 50.00

* * *

Readout type: glass transition temperature (°C)
# number only, unit °C dropped from output

Recorded glass transition temperature, per entry:
Molecule	Unit label	Observed
*O[Si](C)(C)c1ccc([Si](C)(C)O[SiH](*)CCC(F)(F)F)cc1 (repeat unit)	°C	-37.00
*OP(=O)(Oc1c(Cl)c(Cl)c(*)c(Cl)c1Cl)Oc1c(Cl)c(Cl)c(Cl)c(Cl)c1Cl (repeat unit)	°C	133.00
*C(=O)Nc1ccc(S(=O)(=O)c2ccc(NC(=O)c3ccc4c(c3)C(=O)N(c3ccc(NC(=O)Nc5ccc(N6C(=O)c7ccc(*)cc7C6=O)cc5)cc3)C4=O)cc2)cc1 (repeat unit)	°C	205.00

get_value(item= *CC(*)c1ccc(C(=O)N(CC)CC)cc1 (repeat unit) , readout=glass transition temperature) returns 102.00

The molecule identified as *c1ccc(Oc2cccc(Oc3ccc(N4C(=O)c5ccc(-c6ccc7c(c6)C(=O)N(*)C7=O)cc5C4=O)cc3)c2C#N)cc1 (repeat unit) registered its glass transition temperature at 271.00

Please fill in: glass transition temperature reported for *CC(*)(CC(=O)OCCCC1CCCCC1)C(=O)OCCCC1CCCCC1 (repeat unit) = 7.00

glass transition temperature measured on *Oc1ccc(C(=O)c2cccc(C(=O)c3ccc(Oc4cccc(Cc5cccc(*)c5)c4)cc3)c2)cc1 (repeat unit) = 114.00

* * *

Note to self: values exactly at 80 °C are 1. So glass transition temperature at or above 80 °C is 1, below is 0.

Would you please look over these solved cases?
Compound	Group label
*CCOCCOC(=O)O* (repeat unit)	0
*c1ccc(Oc2ccc(C(=O)c3ccc(-c4ccc(C(=O)c5ccc(Oc6ccc(-c7nc(-c8ccccc8)[nH]c7*)cc6)cc5)cc4)cc3)cc2)cc1 (repeat unit)	1
*c1ccc(Cc2ccc(N3C(=O)c4cccc5c(N6CCC(CCCC7CCN(c8ccc9c%10c(cccc8%10)C(=O)N(*)C9=O)CC7)CC6)ccc(c45)C3=O)c(C(C)(C)C)c2)cc1C(C)(C)C (repeat unit)	1
*c1ccc(-c2ccc(Oc3ccc(C4(C)CC(C)(C)c5ccc(Oc6ccc(-c7ccc(-n8c(=O)c9cc%10c(=O)n(*)c(=O)c%10cc9c8=O)cc7)cc6C(F)(F)F)cc54)cc3)c(C(F)(F)F)c2)cc1 (repeat unit)	1
*c1ccc2oc(-c3cccc(-c4nc5cc(C(*)(c6ccccc6)C(F)(F)F)ccc5o4)c3)nc2c1 (repeat unit)	1
*O[Si](*)(C)CCc1cc(C(=O)Oc2ccc(OCCCC)cc2)ccc1C(=O)Oc1ccc(OCCCC)cc1 (repeat unit)	1
*C(=O)NCC(C)(C)CNC(=O)c1ncn(C)c1* (repeat unit)	1
*c1ccc(OC(=O)c2ccc(C(=O)Oc3ccc(C4(*)OCc5ccccc54)cc3)cc2)cc1 (repeat unit)	1

In: State whether the measured glass transition temperature reaches 80 °C, counting equality as reaching it, for *Oc1ccc2ccc(Oc3ccc(C(=O)Nc4ccc(Oc5ccc(Oc6ccc(NC(=O)c7ccc(*)cc7)cc6)cc5)cc4)cc3)cc2c1 (repeat unit)
Out: 1

In: Assess whether reported glass transition temperature for *COC(=O)OCC1OC(OCC)OC1* (repeat unit) sits at 80 °C or higher.
Out: 0

In: Exam item: decide whether the reported glass transition temperature for */C=C(/*)c1ccc(-n2c(=O)c3cc4c(=O)n(-c5ccc(C#C)cc5)c(=O)c4cc3c2=O)cc1 (repeat unit) is at least 80 °C.
Out: 1

* * *

// values below are reported glass transition temperature
Value expressed in °C; do not type the unit.

Compound	glass transition temperature (°C)
*C(=O)c1ccc2c(c1)C(=O)N(c1ccc(N(c3ccc(C#N)cc3)c3ccc(N4C(=O)c5ccc(*)cc5C4=O)cc3)cc1)C2=O (repeat unit)	315.00
*c1ccc2c(c1)C(=O)N(c1ccc(OCCOc3ccc(N4C(=O)c5ccc(C(*)(C(F)(F)F)C(F)(F)F)cc5C4=O)cc3)cc1)C2=O (repeat unit)	254.00
*C#Cc1ccccc1C#C[SiH](*)c1ccccc1 (repeat unit)	71.00

Entry *Nc1ccc(CCNC(=O)CCCCC(*)=O)cc1 (repeat unit) — recorded glass transition temperature = 115.00

* * *

Outcome: Criterion met for glass transition temperature of at least 200 °C; Criterion not met for anything lower.

Record excerpt, results attached:
Molecule	Group label
*Oc1c(Cl)cc(*)cc1Br (repeat unit)	Criterion not met
*Oc1ccc(C2(c3ccc(OC(=O)C45CC6CC(CC(C(*)=O)(C6)C4)C5)cc3)c3ccccc3-c3ccccc32)cc1 (repeat unit)	Criterion met
*C1C(=O)OC(=O)C1C1C2CC(COCCC)C(C2)C1* (repeat unit)	Criterion met
*Nc1ccc(NC(=O)c2ccc(NC(=O)c3ccc(P(=O)(c4ccccc4)c4ccc(C(*)=O)cc4)cc3)cc2)cc1 (repeat unit)	Criterion met
*CNC(=O)OCC(OC(=O)NCc1ccc(C(C)(C)c2ccc(*)o2)o1)c1ccco1 (repeat unit)	Criterion not met

In: Decide: is the reported value of glass transition temperature for *CCCCOC(=O)NCC(F)(F)C(F)(F)C(F)(F)C(F)(F)CNC(=O)O* (repeat unit) equal to or greater than 200 °C?
Out: Criterion not met

In: I'd appreciate it if you could say whether *N=P(N=P(N=S(*)(=O)NCCCCCC)(NCCCCCC)NCCCCCC)(NCCCCCC)NCCCCCC (repeat unit) has glass transition temperature at least equal to 200 °C.
Out: Criterion not met

In: Decide: is the reported value of glass transition temperature for *CCCCCC(=O)NNC(=O)c1ccc(C(=O)NNC(=O)CCCCCOc2ccc(O*)c(C)c2)cc1 (repeat unit) equal to or greater than 200 °C?
Out: Criterion not met

In: # check: glass transition temperature of *OP(=O)(Oc1ccc(Cl)cc1)Oc1c(Cl)c(Cl)c(*)c(Cl)c1Cl (repeat unit) is greater than or equal to 200 °C
Out: Criterion not met

In: Textbook exercise: given the entry *c1ccc(-c2cnc3ccc(-c4ccc5ncc(*)nc5c4)cc3n2)cc1 (repeat unit) , state whether its glass transition temperature is greater than or equal to 200 °C.
Out: Criterion met

In: Could you please find out whether *C(=O)c1ccc(Oc2ccc(C(C)(C)c3ccc(Oc4ccc(*)s4)cc3)cc2)cc1 (repeat unit) has glass transition temperature that meets 200 °C or exceeds it?
Out: Criterion not met

In: I'd appreciate it if you could say whether *c1ccc(Oc2ccc(N3C(=O)c4cccc(Oc5ccc(C(C)(C)c6ccc(Oc7cccc8c7C(=O)N(*)C8=O)cc6)cc5)c4C3=O)cc2)cc1 (repeat unit) has glass transition temperature at least equal to 200 °C.
Out: Criterion met

In: Hi, just wondering whether *Cc1ccc2oc(=O)c(C(=O)Nc3ccc(Oc4ccc(NC(=O)c5cc6cc(*)ccc6oc5=O)cc4)cc3)cc2c1 (repeat unit) shows glass transition temperature of 200 °C or higher.
Out: Criterion met

In: Identify whether the reported glass transition temperature of the following molecule is 200 °C or greater: *c1cccc(-c2ccc3[nH]c(S(=O)(=O)c4nc5ccc(*)cc5[nH]4)nc3c2)c1 (repeat unit)
Out: Criterion met

In: Answer whether glass transition temperature of *c1nc(C)nc(N(CCCCCCN(*)c2ccccc2)c2ccccc2)n1 (repeat unit) is greater than or equal to 200 °C.
Out: Criterion not met

In: In plain terms: is recorded glass transition temperature at least 200 °C for *CCC(C)CCOC(=O)CCCCC(=O)O* (repeat unit) ?
Out: Criterion not met

In: Please check the record *CC(*)OCCCCC (repeat unit) and state if its glass transition temperature is at or above 200 °C.
Out: Criterion not met

In: Would you say *O[SiH](*)C (repeat unit) shows glass transition temperature at minimum 200 °C?
Out: Criterion not met

In: Say whether *Oc1ccc(CC(C#N)(Cc2ccc(*)cc2)c2ccccc2)cc1 (repeat unit) shows glass transition temperature of 200 °C or more.
Out: Criterion not met

In: Decide: is the reported value of glass transition temperature for */C=C(/*)CCCOC(=O)c1cc(-c2ccc(OC)cc2)ccc1-c1ccc(OC)cc1 (repeat unit) equal to or greater than 200 °C?
Out: Criterion not met

* * *

Readout type: glass transition temperature (°C)
Give just the numeric value; °C need not be written.

Past entries and their recorded results:
Molecule	Readout type	Observed
*c1ccc(-c2ccc(OCCCCCCCCCC)c(-c3cc(*)ccc3OCCCCCCCCCC)c2)cc1 (repeat unit)	glass transition temperature	58.00
*c1ccc2c(c1)C(CCCCCCCC)(CCCCCCCC)c1cc(-c3ccc(-c4ccc(-c5ccc(*)s5)c5cc(-c6ccccc6)c(-c6ccccc6)nc45)s3)ccc1-2 (repeat unit)	glass transition temperature	142.00

For reference, reported glass transition temperature for *c1ccc2c3ccc(-c4sc(-c5ccc(-c6cc(CCCCCC)c(*)s6)c6nsnc56)cc4CCCCCC)cc3n(C(CCCCCCCC)CCCCCCCC)c2c1 (repeat unit) stands at 74.00
